These measurements were taken from PubChem BioAssay (NCI).

- Tested on: OVCAR-3 ovarian
- experiment summary: NCI-60 one-dose screen, 48 h (100 = growth as untreated, 0 = no growth, -100 = all killed)
- run parameters: 10 µM unless noted
Compounds without any hit were thinned out: in the full panel of roughly 83,000, 20% have a hit.
Measured growth of individual entries
Just the number please, in %, no unit attached.

Answered examples (5):
compound	growth (%)
NS(=O)(=O)c1ccc(-n2cc(-c3cccc(NC(=O)c4cc(Cl)cc(Cl)c4)c3)nn2)cc1	48.2
COc1c(F)ccc(C(=O)Nc2ccc3nc(NC(=O)C4CCCN(S(=O)(=O)c5cccc(C(F)(F)F)c5)C4)sc3c2)c1F (stereo unspecified)	88.1
CCOC(=O)C1=C(N)N(c2ccccc2)C2=C(C(=O)CC(C)(C)C2)C1c1ccc(Cl)cc1Cl (stereo unspecified)	33.3
CC(=O)Nc1ccc(-n2cnc3ccc(-c4ccc(O)cc4)cc32)cc1	54.3
COc1cc(OC)c2c3nc4cc(C)c(C)cc4nc3n(CCN(C)C)c2c1	97.7

growth reading for `COC(=O)C[C@](O)(CCCC(C)(C)O)C(=O)O[C@H]1C(OC)=C[C@@]23CCCN2CCc2cc4c(cc2[C@@H]13)OCO4` : -28.5

Entry CCOC(=O)/C=C/c1cccc2c1C(=O)NC(C)(c1cc3cc(Br)ccc3oc1=O)N2 (stereo unspecified) , growth reported as 48.4

Looking up `Cc1ccc(-c2nc(C#N)c(S(=O)(=O)N3CCN(S(=O)(=O)c4ccccc4)CC3)o2)cc1` , I see its growth listed as 1.2

The compound listed as COC(OC)C1=C(C)OC(N)=C(C#N)C12C(=O)Nc1ccccc12 (stereo unspecified) has a reported growth of 101

CC1(C)CC[C@]2(C(=O)O)CC[C@]3(C)C(=CCC4[C@@]5(C)C[C@@H](O)[C@@H]6OC(c7ccco7)OC[C@@]6(C)C5CC[C@]43C)C2C1 (stereo partly specified) has a reported growth of 20.5

Memo: C=C1CCC2C3(C)COC(c4ccco4)OC3CCC2(C)C1CC(Sc1ccccc1)C1=CCOC1=O (stereo unspecified) , reported growth: 37

The compound identified as COc1ccc(C2=NN(c3ccccc3)C(c3ccc(OCc4ccccc4)c(OC)c3)C2)cc1OC (stereo unspecified) registered its growth at 109

So, C=C1CCC2C3(C)COC(c4ccccc4)OC3CCC2(C)C1CC(NCc1ccccc1)C1=CCOC1=O (stereo unspecified) ? Its growth was 83

growth for `CCN1C(=O)/C(=N\N=C(/C)c2ccc3c(c2)Nc2ccccc2S3)c2cc(Cl)ccc21` is 55.6

// growth value for `COc1ccc2[nH]cc(-c3nnc(N)nc3-c3cn(C)c4ncc(Br)cc34)c2c1` : 65.7

Item: Cc1nc(Nc2ncc(C(=O)Nc3c(C)cccc3Cl)s2)cc(N2CCN(CCCNC(=O)COc3ccc(C4CCC(=O)NC4=O)cc3)CC2)n1 (stereo unspecified) | growth: 72

// field: growth; key: `O=C1C(=Nc2ccc(F)c(Cl)c2)c2cccc3cccc1c23` ; value = 25.3

Just so you know, measured growth for CC(C)C(C(=O)O)n1c(O)c(/C=C2/C=c3cc4c(cc3=NC2=O)OCO4)sc1=S (stereo unspecified) came out at 107
